Property: FcγIIb (read at 405 nm); scope: individual sequences
test system: FcγIIb; test: Reverse ELISA: inhibition of PAP immune complex binding to FcγIIb coated plates; settings: PAP pre-incubated 1 h with peptide, 1 h on FcγIIb coated plates; lower = more inhibition; positive control 1.394
No end group written: not given here.
value_kind: FcγIIb (read at 405 nm)

[
  {
    "seq_text": "APPCAFHLGELVWCT (not fully specified; cysteine pairing not given here)",
    "assayed_target": "FcγIIb",
    "measured_number": 0.380
  },
  {
    "seq_text": "DCAWHLGELVWCT",
    "assayed_target": "FcγIIb",
    "measured_number": 0.532
  },
  {
    "seq_text": "DCAFHLGELVWCT",
    "assayed_target": "FcγIIb",
    "measured_number": 0.510
  },
  {
    "seq_text": "APPCARHLGELVWCT",
    "assayed_target": "FcγIIb",
    "measured_number": 0.768
  },
  {
    "seq_text": "APPDCAWHLGELVWCT",
    "assayed_target": "FcγIIb",
    "measured_number": 0.496
  },
  {
    "seq_text": "APPCAWHLGELVWCT",
    "assayed_target": "FcγIIb",
    "measured_number": 0.562
  }
]

Each recorded value in this set is attributed to patent US20080200392A1.
